Hey, just so you know, these numbers are from paper PMC9958325.

system: SARS-CoV-2 TKYX00012/ο BA.1; assay: microbe, parasite or virus in culture; assay type: cell-based; conditions: Severe acute respiratory syndrome coronavirus 2, Vero C1008, read-out: EC50 ο BA1, Average
observation.type: EC50
Your reply should be a number followed by the unit it is expressed in.

Prompt line: State its EC50: CC(C)(C)[C@H](NC(=O)C(F)(F)F)C(=O)N1C[C@H]2[C@@H]([C@H]1C(=O)N[C@H](C#N)C[C@@H]1CCNC1=O)C2(C)C [Nirmatrelvir, reference compound]
Response line: 1.05 µM

----------
assay: Pharmacokinetic study in PXB-mice (human liver-chimeric); settings: male, PXB (human liver-chimeric), mouse, plasma, po, 10 mg/kg, Plasma concentration, PXB-mice, p.o. 10 mg/kg, 0.17 hr; individual mice
observation.type: concentration at 0.17 hr (ng/mL)
Provide the reading as a plain figure in ng/mL.

Prompt line: State its concentration at 0.17 hr: CC(C)(C)[C@H](NC(=O)C(F)(F)F)C(=O)N1C[C@H]2[C@@H]([C@H]1C(=O)N[C@H](C#N)C[C@@H]1CCNC1=O)C2(C)C [Nirmatrelvir, reference compound]
Response line: 1600

----------
assay: Pharmacokinetic study in PXB-mice (human liver-chimeric); conditions: male, PXB (human liver-chimeric), mouse, plasma, iv, 10 mg/kg, Plasma concentration, PXB-mice, i.v. 10 mg/kg, 0.17 hr; individual mice
observation.type: concentration at 0.17 hr (ng/mL)
Provide the reading as a plain figure in ng/mL.

Prompt line: State its concentration at 0.17 hr: CC(C)(C)[C@H](NC(=O)C(F)(F)F)C(=O)N1C[C@H]2[C@@H]([C@H]1C(=O)N[C@H](C#N)C[C@@H]1CCNC1=O)C2(C)C [Nirmatrelvir, reference compound]
Response line: 4250

----------
tested on: SARS-CoV-2^WK521 in A549-ACE2-TMPRSS2 cells; experiment: Antiviral assay, A549-ACE2-TMPRSS2 cells, WK521; assay type: cell-based; details: Severe acute respiratory syndrome coronavirus 2, source data; read-out: EC50, A549-AEC2-TMPRSS2, Average
observation.type: EC50 (µM)
Provide the reading as a plain figure in µM.

Prompt line: State its EC50: CC(C)(C)[C@H](NC(=O)C(F)(F)F)C(=O)N1C[C@H]2[C@@H]([C@H]1C(=O)N[C@H](C#N)C[C@@H]1CCNC1=O)C2(C)C [Nirmatrelvir, reference compound]
Response line: 0.0174

----------
test system: SARS-CoV-2 TKYS02037/ο BA.2; assay: microbe, parasite or virus in culture; format: cell-based; details: read-out: EC50 ο BA2, Average
observation.type: EC50 (nM)
Provide the reading as a plain figure in nM.

Prompt line: Answer briefly: EC50 recorded on SARS-CoV-2 TKYS02037/ο BA.2 for CC(C)(C)[C@H](NC(=O)C(F)(F)F)C(=O)N1C[C@H]2[C@@H]([C@H]1C(=O)N[C@@H](C[C@@H]1CCNC1=O)C(=O)c1nc3c(F)cccc3s1)C2(C)C [TKB245]
Response line: 45.3

----------
target: human calpain (Homo sapiens)
Sequence (P07384 2-714): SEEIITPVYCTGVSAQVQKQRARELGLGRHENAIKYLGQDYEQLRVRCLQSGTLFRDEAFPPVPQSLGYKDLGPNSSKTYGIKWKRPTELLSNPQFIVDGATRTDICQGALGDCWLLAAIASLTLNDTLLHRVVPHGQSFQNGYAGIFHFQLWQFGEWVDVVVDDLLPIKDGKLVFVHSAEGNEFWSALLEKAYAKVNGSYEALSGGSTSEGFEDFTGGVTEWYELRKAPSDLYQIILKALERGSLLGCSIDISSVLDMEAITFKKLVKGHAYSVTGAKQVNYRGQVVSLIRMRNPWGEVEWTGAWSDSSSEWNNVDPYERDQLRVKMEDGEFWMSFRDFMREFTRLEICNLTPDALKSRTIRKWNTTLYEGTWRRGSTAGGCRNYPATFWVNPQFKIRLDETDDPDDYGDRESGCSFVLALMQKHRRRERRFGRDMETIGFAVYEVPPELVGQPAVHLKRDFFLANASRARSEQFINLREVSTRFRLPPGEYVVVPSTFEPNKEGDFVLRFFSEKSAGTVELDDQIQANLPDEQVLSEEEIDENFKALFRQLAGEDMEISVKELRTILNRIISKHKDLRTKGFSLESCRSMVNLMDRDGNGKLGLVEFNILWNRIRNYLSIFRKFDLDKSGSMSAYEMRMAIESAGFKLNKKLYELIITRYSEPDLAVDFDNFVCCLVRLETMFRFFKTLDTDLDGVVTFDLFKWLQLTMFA
Sequence (P04632 whole entry partner): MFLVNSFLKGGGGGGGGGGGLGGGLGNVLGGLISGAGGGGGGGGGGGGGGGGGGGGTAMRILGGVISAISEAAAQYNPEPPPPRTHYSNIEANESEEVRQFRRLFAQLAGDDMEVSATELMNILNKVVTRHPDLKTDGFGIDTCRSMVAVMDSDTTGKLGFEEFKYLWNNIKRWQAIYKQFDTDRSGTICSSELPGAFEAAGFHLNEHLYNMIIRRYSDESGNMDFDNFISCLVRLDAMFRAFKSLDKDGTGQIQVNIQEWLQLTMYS
Item-by-item account of IC50

CC(C)(C)[C@H](NC(=O)C(F)(F)F)C(=O)N1C[C@H]2[C@@H]([C@H]1C(=O)N[C@@H](C[C@@H]1CCNC1=O)C(=O)c1nc3c(F)cccc3s1)C2(C)C :: > 2000 nM

Please examine the following record next.
Prompt line: Answer briefly: IC50 recorded on human calpain (Homo sapiens) for CC(C)(C)[C@H](NC(=O)C(F)(F)F)C(=O)N1C[C@H]2[C@@H]([C@H]1C(=S)N[C@@H](C[C@@H]1CCNC1=O)C(=O)c1nc3c(F)cccc3s1)C2(C)C
Response line: > 2000 nM
